Source: PubChem BioAssay AID1159580

# ASSAY_PROTOCOL: chemical genetic growth profiling, strain panel (AID 1159580);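 further: tested at 20 µM; growth read once vehicle control cultures reached saturation at 30 °C; lower values mean less growth of the strain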
# RUN_CONDITIONS: S. cerevisiae deletion strains, growth OD, locus YDR195W, strain ref2
The campaign covered roughly 5,500 compounds. About 2,000 (36%) were called active. About 18% were inconclusive and are not listed. No stated cut-off is given here; in the data, active means normalized growth mostly below about 0.91 (no sharp cut-off); inconclusive means no clear call, values can overlap the other calls; inactive means mostly above about 0.92. The list shows a part of the results.
Please reply with one of these outcomes: active, inactive

Request: Please indicate how the test categorized COc1cccc(OC)c1C(=O)N[C@@H]1C(=O)N2[C@@H]1SC(C)(C)[C@@H]2C(=O)O .
Result: inactive

Request: What classification did c1ccc2c(Cc3c[nH]c4ccccc34)c[nH]c2c1 end up with in this test?
Result: active

Request: GET /call?item= Cc1onc(-c2ccccc2)c1C(=O)NC1C(=O)N2[C@@H]1SC(C)(C)[C@@H]2C(=O)O (some centres not stated) returns the recorded outcome of this test.
Result: inactive

Request: Any idea what this test logged for COC1(C)CCC2OC2(C)CCC2C1CC2(C)C (configuration not stated) ?
Result: inactive

Request: What call does the record list for CC[C@H]1OC(=O)[C@H](C)[C@@H](O[C@H]2C[C@@](C)(OC)[C@@H](O)[C@H](C)O2)[C@H](C)[C@@H](O[C@@H]2O[C@H](C)C[C@H](N(C)C)[C@H]2O)[C@](C)(O)C[C@@H](C)[C@@H]2N[C@@H](COCCOC)O[C@H]([C@H]2C)[C@]1(C)O ?
Result: inactive

Request: Query: recorded result category for O=C(O)[C@H](O)[C@@](O)(Cc1ccc(O)cc1)C(=O)O in this test
Result: inactive

Request: Can you look up the reported call for CC1(C)S[C@@H]2[C@H](NC(=O)Cc3ccccc3)C(=O)N2[C@H]1C(=O)O for me?
Result: inactive

Request: What classification did CO[C@H]1C[C@H](O[C@H]2[C@H](C)[C@@H](OC3O[C@H](C)C[C@H](N(C)C)[C@H]3OC(C)=O)[C@@H](C)C[C@]3(CO3)C(=O)[C@H](C)[C@@H](OC(C)=O)[C@@H](C)[C@@H](C)OC(=O)[C@@H]2C)O[C@@H](C)[C@@H]1OC(C)=O (some centres not stated) end up with in this test?
Result: inactive

Request: # lookup: test call for COc1cc(/C=C/C(=O)N2CCC=CC2=O)cc(OC)c1OC
Result: inactive

Request: Check the results log: what was the call for OCc1c[nH]c2ccccc12 ?
Result: inactive
